biological target: human CXCR3A (Homo sapiens (Human), UniProt P49682); assay: FLIPR assay; conditions: CHO-K1 cells expressing the human CXCR3A coupled to Galpha(16); CXCL10 agonist 20 nM; Fluo-4-AM fluorescence; mean values if determined several times
Sequence (P49682 whole entry): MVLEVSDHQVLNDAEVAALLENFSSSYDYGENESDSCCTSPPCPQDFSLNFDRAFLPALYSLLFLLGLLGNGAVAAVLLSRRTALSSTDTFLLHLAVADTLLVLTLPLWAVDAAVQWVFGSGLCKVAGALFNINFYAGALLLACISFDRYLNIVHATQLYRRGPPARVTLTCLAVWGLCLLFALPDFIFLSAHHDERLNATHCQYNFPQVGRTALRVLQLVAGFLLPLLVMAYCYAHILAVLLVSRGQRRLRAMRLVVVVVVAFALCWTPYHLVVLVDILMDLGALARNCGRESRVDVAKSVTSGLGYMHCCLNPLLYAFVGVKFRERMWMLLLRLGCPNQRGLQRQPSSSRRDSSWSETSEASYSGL
endpoint name: IC50 (nM)

compound="C[C@@H]1CN(c2sc(C(F)(F)F)nc2-c2nc3ccccc3[nH]2)CCN1C(=O)Cn1nccc1-c1ccccc1 [Example 204]" numeric_result=6

P = C[C@@H]1CN(c2sc(C(F)(F)F)nc2-c2nc3ccc(CO)cc3[nH]2)CCN1C(=O)Cn1cnc2cccnc21 [Example 160]
Q = Cc1cc(C)nc(CC(=O)N2CCN(c3sc(C(F)(F)F)nc3-c3nc4ccccc4[nH]3)C[C@H]2C)c1 [Example 220]
### Prompt Pick one, P or Q : lowest reported IC50. Could you answer with the label of the item you picked?
### Response P
(P: 2 nM, Q: 19 nM)
